TARGET_DESC: Bcl-2-like protein 1 (Homo sapiens)
Sequence (Q07817 whole entry): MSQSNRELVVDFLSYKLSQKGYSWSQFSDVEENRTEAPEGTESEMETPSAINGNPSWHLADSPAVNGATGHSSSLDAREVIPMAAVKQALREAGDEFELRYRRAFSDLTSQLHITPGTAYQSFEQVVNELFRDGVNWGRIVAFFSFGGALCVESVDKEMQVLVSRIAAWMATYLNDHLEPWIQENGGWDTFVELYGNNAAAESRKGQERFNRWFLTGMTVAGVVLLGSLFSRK
ASSAY_REMARKS: Inhibition of BCL-XL (unknown origin) incubated for 1 hr in presence of 1% human serum by TR-FRET assay
READOUT: Ki (nM)
# value in nM; strip the unit string

Worked set:
CN1CCN(CCCNc2ncnc3c2cnn3-c2ccc(OCCCc3sc(N4CCc5cccc(C(=O)Nc6nc7ccccc7s6)c5C4)nc3C(=O)O)cc2)CC1 ... 0.03
O=C(Nc1nc2ccccc2s1)c1cccc2c1CN(c1nc(C(=O)O)c(CCCOc3ccc(-n4cccn4)cc3)s1)CC2 ... 0.99

What does the record list as Ki for CN(C)CC#Cc1cc(F)c(OCCCc2sc(N3CCc4cccc(C(=O)Nc5nc6ccccc6s5)c4C3)nc2C(=O)O)cc1F ?
0.33

Can you look up the measured Ki of O=C(Nc1nc2ccccc2s1)c1cccc2c1CN(c1nc(C(=O)O)c(CCCOc3ccc(-n4ncc5cncnc54)cc3)s1)CC2 for me?
0.38
